Test system: UO-31 renal
protocol-description: NCI tumour cell line growth inhibition, 48 h; in the data active means GI50 below about 0.43 µM; inactive means the rest
I would appreciate it if you answered using one of these outcomes: active, inactive

Solved entries (count: 4):
- smiles-record: "CCN(CC)CCOc1ccc(Cc2ccccc2)cc1"
  target-of-assay: "UO-31 renal"
  category: "inactive"
- smiles-record: "CCN(CC)c1ccc(/C=N/NC(=O)c2ccccc2Nc2ccnc(C(F)(F)F)c2)c(O)c1"
  target-of-assay: "UO-31 renal"
  category: "active"
- smiles-record: "COc1ccc(C(=O)c2cc(C)c(OC)c(C)c2)c(OC)c1N(C(=O)CCl)C(=O)CCl"
  target-of-assay: "UO-31 renal"
  category: "active"
- smiles-record: "COc1cccc(NC(=O)c2ccc(NC3=C(Cl)C(=O)N(Cc4ccccc4)C3=O)cc2)c1"
  target-of-assay: "UO-31 renal"
  category: "inactive"

Then there is this molecule:
Tell me the assay call for "Cc1cc(C)c(O)c(CNCCCNCc2cc(C)cc(C)c2O)c1" please.
inactive

###

Test system: SK-MEL-2 melanoma
protocol-description: NCI tumour cell line growth inhibition, 48 h
Give TGI for every item shown.
One number for each entry, in µM.

Examples with answers:
- smiles-record: "CCN(CCCl)c1cc(CN(C)C)cc(NC(=O)c2ccc(C(=O)Nc3ccccc3)cc2)c1"
  units-text: "µM"
  TGI: 0.519
- smiles-record: "COc1ccc(NS(=O)(=O)c2ccc(N=C3C=C(Nc4ccc(S(=O)(=O)Nc5ccc(OC)nn5)cc4)C(=O)c4ccccc43)cc2)nn1"
  units-text: "µM"
  TGI: 33.2

Value of measured TGI for the entry "CCN(CC)CCOc1ccc(Cc2ccccc2)cc1" : 50.5

###

Tested on: UACC-62 melanoma
protocol-description: NCI tumour cell line growth inhibition, 48 h
result-type: TGI (µM)
Answers are plain numbers, in µM.

Illustrative cases are given below, each with its answer.
- molecule: "O=C1CCC(N2C(=O)c3cccc(NCCOCCOCCNC(=O)c4cc5c(o4)C(=O)c4ccccc4C5=O)c3C2=O)C(=O)N1 (stereo not given)"
  units-text: "µM"
  TGI: 2.98
- molecule: "COC(=O)C1=C(O)c2cc3c(cc2[C@H](c2cc(OC)c(OC)c(OC)c2)C1)OCO3"
  units-text: "µM"
  TGI: 27.9
- molecule: "CC1OC(OC2C[C@](O)(C(=O)CBr)Cc3c(O)c4c(c(O)c32)C(=O)c2ccccc2C4=O)C(F)C(O)C1O (stereo not given in full)"
  units-text: "µM"
  TGI: 34.5

The reported TGI of the molecule "ClCCc1ccccc1CC1=NCCc2ccccc21" was 98.9

###

Test system: MCF7 breast
protocol-description: NCI tumour cell line growth inhibition, 48 h; in the data active means GI50 below about 0.43 µM; inactive means the rest
Outcome field: choose from active, inactive

Take a look at these entries with their results.
- compound: "C=C(C)[C@@H]1CC[C@]2(CN)CC[C@]3(C)[C@H](CC[C@@H]4[C@@]5(C)CCC(N)[C@@](C)(CO)[C@@H]5CC[C@]43C)[C@@H]12 (some centres undefined)"
  category: "inactive"
- compound: "COc1ccc2c(c1)c(-c1ccc(-c3cn(C)c4ccc(OC)cc34)o1)cn2C"
  category: "inactive"
- compound: "COc1cccc(NC(=O)c2ccc(NC3=C(Cl)C(=O)N(Cc4ccccc4)C3=O)cc2)c1"
  category: "inactive"
- compound: "CN1CCN(Cc2ccc(NC(=O)c3cccc(C#Cc4c(N)ncc5ccc(F)cc45)c3)cc2C(F)(F)F)CC1"
  category: "inactive"
- compound: "O=C(Nc1ccc(-n2ccc3c(NC(=O)c4ccccc4)nccc32)cc1)c1ccc(N2CCOCC2)c(C(F)(F)F)c1"
  category: "active"
- compound: "CCN(CC)c1ccc(/C=N/NC(=O)c2ccccc2Nc2ccnc(C(F)(F)F)c2)c(O)c1"
  category: "active"
- compound: "CCC1(N)C(=O)OCc2c1cc1n(c2=O)Cc2cc3ccccc3nc2-1 (centres undefined)"
  category: "inactive"
- compound: "COc1cc2c(cc1OC)-c1ncc3cc(OC)c(OC)cc3c1C2"
  category: "inactive"

Next up:
For this compound, state the assay outcome: Cc1ccc2c(c1)-c1oc(=O)c(-c3cc4ccccc4oc3=O)cc1C(O)O2 (centres undefined)
inactive

###

Provide the recorded TGI for the entries that follow.
Tested on: COLO 205 colon
protocol-description: NCI tumour cell line growth inhibition, 48 h
Give bare numbers, in µM.

A selection of reference data follows.
- compound: "Nc1nc(CC2(O)CCCCC2)cc(-c2ccccc2)n1"
  TGI [µM]: 32.9
- compound: "Cc1nc2ccccc2c(/C=C/c2ccccc2)c1C(=O)/C=C/c1ccccc1"
  TGI [µM]: 4.44
- compound: "COC(=O)C1=C(O)c2cc3c(cc2[C@H](c2cc(OC)c(OC)c(OC)c2)C1)OCO3"
  TGI [µM]: 34.7
- compound: "Fc1cc2nc3n(c2cc1F)C(c1c(Cl)cccc1Cl)SC3 (stereo unspecified)"
  TGI [µM]: 36.3
- compound: "C#CCN(Cc1nc2cc(C(F)(F)F)ccc2nc1-c1ccccc1)c1ccc(F)cc1"
  TGI [µM]: 50.5

Count: 7. Required value per item: TGI.
1. COc1cc(C(=O)N(C(=S)OC23CC4CC(CC(C4)C2)C3)c2ccccc2)cc(OC)c1OC
2. C/C=C(\C)C(=O)N1c2ccccc2CC1c1c(C)[nH]c2ccccc12 (stereo unspecified)
3. COc1cc2c3c(c1OC)C(=O)C(=O)C1=C3N(CCC1)CC2
4. COC(=O)[C@]1(Cc2ccc3ccccc3c2)CCCCCCN1C(=O)c1ccccc1
5. CCCc1n(Cc2ccc3ccccc3n2)cc[n+]1Cc1ccc2ccccc2c1
6. Cc1ccc(-n2c3c(c4c(CN)c(O)ccc42)CCc2ccccc2C3=O)cc1
7. CCCCCC(=C/c1ccccc1)/C=N/N=C(N)N

39
74.5
35.3
24.5
1.34
47
3.17

###

Can you tell me TGI for the items I'm about to list?
Test system: DU-145 prostate
protocol-description: NCI tumour cell line growth inhibition, 48 h

- compound: "COC(=O)C1(Cc2ccc(C)cc2)Cc2c(C)cccc2C1=O (stereo unspecified)"
  target-of-assay: "DU-145 prostate"
  value-reported: "72 µM"
- compound: "O=C(NNC(=O)c1c(Cl)c(Cl)c(Cl)c(Cl)c1-c1nc2ccccc2[nH]1)c1ccc(Cl)cc1"
  target-of-assay: "DU-145 prostate"
  value-reported: "> 100 µM"
- compound: "OC1(C2(c3ccc(Cl)cc3)CCCC2)c2ccccc2C2=NCCN21 (stereo unspecified)"
  target-of-assay: "DU-145 prostate"
  value-reported: "16.3 µM"
- compound: "COc1ccc(-c2c3c(nc4[nH]c(=S)[nH]c(=S)c24)CCCC3)cc1OC"
  target-of-assay: "DU-145 prostate"
  value-reported: "> 100 µM"
- compound: "NS(=O)(=O)c1nnc(NC(=O)/C=C/C(=O)O)s1"
  target-of-assay: "DU-145 prostate"
  value-reported: "> 100 µM"
- compound: "CN(C)c1c(C2CC(O)C(CO)O2)c(=O)c1=O (stereo unspecified)"
  target-of-assay: "DU-145 prostate"
  value-reported: "> 100 µM"
- compound: "COc1ccc(NC(=O)CC(=O)N2N=C(C)C(N=Nc3ccc(C(=O)O)cc3)C2=O)cc1 (stereo unspecified)"
  target-of-assay: "DU-145 prostate"
  value-reported: "> 100 µM"
- compound: "O=S(=O)(NCCNc1cc(-c2cn(-c3ccccc3)nc2-c2cccc(O)c2)ccn1)c1ccc(Br)cc1"
  target-of-assay: "DU-145 prostate"
  value-reported: "11.6 µM"
- compound: "COc1cc(C2SCC(=O)N2NC(=O)c2ccc(NC(C)=O)cc2OC)ccc1O (stereo unspecified)"
  target-of-assay: "DU-145 prostate"
  value-reported: "> 100 µM"
- compound: "CSS(C)(=O)=O"
  target-of-assay: "DU-145 prostate"
  value-reported: "45.9 µM"

// below: TGI requested for another compound
TGI measured on "CC(C)C[C@H](NC(=O)CCc1cccc2ccccc12)B(O)O" = > 65.6 µM

###

Test system: NCI-H460 lung
API: response.call in T for active, F for inactive

- compound: "CN1CCN(Cc2ccc(NC(=O)c3cccc(C#Cc4c(N)ncc5ccc(F)cc45)c3)cc2C(F)(F)F)CC1"
  target-of-assay: "NCI-H460 lung"
  category: "F"

// next entry
# fetch the recorded call for CCCC(=O)Nc1c(I)cc(I)c(CC(CC)C(=O)O)c1I (stereo unspecified) here
F

###

System: KM12 colon
protocol-description: NCI tumour cell line growth inhibition, 48 h
result-type: TGI

Solved cases below.
- compound: "NC(Cc1c[nH]c2cc(F)ccc12)C(=O)O (stereo not drawn)"
  target-of-assay: "KM12 colon"
  TGI: "> 2500 µM"
- compound: "COC1C(OC(C)=O)CC(=O)OC(C)C/C=C/C=C\\C(O)C(C)CC(CC=O)C1OC1OC(C)C(OC2CC(C)(O)C(OC(=O)CC(C)C)C(C)O2)C(N(C)C)C1O (stereo not drawn)"
  target-of-assay: "KM12 colon"
  TGI: "> 100 µM"
- compound: "CC(C)C[C@H](NC(=O)CCc1cccc2ccccc12)B(O)O"
  target-of-assay: "KM12 colon"
  TGI: "5.4 µM"
- compound: "O=S(=O)(NCCNc1cc(-c2cn(-c3ccccc3)nc2-c2cccc(O)c2)ccn1)c1ccc(Br)cc1"
  target-of-assay: "KM12 colon"
  TGI: "7.95 µM"
- compound: "COc1cc(C(=O)N(C(=S)OC23CC4CC(CC(C4)C2)C3)c2ccccc2)cc(OC)c1OC"
  target-of-assay: "KM12 colon"
  TGI: "> 100 µM"

Would you mind listing TGI for each of the following compounds?
1. C=C1C(=O)O[C@H]2[C@H]1CC/C(Cn1cc(-c3ccsc3)nn1)=C\CC[C@@]1(C)O[C@@H]21
2. COc1cc(OC2OC(CO)C(O)C(O)C2O)c2c(c1)O[C@@H]1[C@H](O)Oc3cc(OC)c(OC)cc3[C@]1(O)C2=O (stereo partly drawn)
3. COc1cc(/C=C2\Cc3ccccc3C2=O)cc(OC)c1OC

1: 19.6 µM; 2: > 25 µM; 3: > 100 µM
